pIC50: −log10 of the molar value.
Record: compiled pIC50 on TYRO3 (Homo sapiens, UniProt Q06418) from multiple reports.

Here's what some known entries look like.
C[C@@H]1CCCN1C1(C)CCc2ccc(-c3cnc4[nH]nc(-c5ccc(S(N)(=O)=O)c(Cl)c5)c4c3)cc2CC1 (some centres unmarked)    > 7.00
COC[C@H](C)Nc1ncc2c(-c3ccc(C(=O)N4CCS(=O)(=O)CC4)cc3)cc([C@H]3CC[C@H](O)CC3)n2n1    ≥ 7.00
COC[C@H](C)Nc1ncc2c(-c3cn(C)nc3C)cc([C@H]3CC[C@H](O)CC3)n2n1    ≥ 7.00
C[C@@H]1CCCN1C1CCc2ccc(-c3cnc4[nH]nc(-c5ccc(S(=O)(=O)C6CC6)cc5)c4c3)cc2CC1 (some centres unmarked)    6.00 to 7.00
C[C@@H](COC(F)F)Nc1ncc2c(-c3cnn(CCC#N)c3)cc([C@H]3CC[C@H](O)CC3)n2n1    ≥ 7.00

Quick one: pIC50 of `COCCN1C(C)(C)CC(Oc2ncc([C@H]3CC[C@H](O)CC3)c3nc(N[C@@H](C)CC#N)ncc23)CC1(C)C` ?
≥ 7.00

Please report the recorded pIC50 for `COC[C@H](C)Nc1ncc2c(-c3cnn(C(C)(C)c4nc(C)co4)c3)cc([C@H]3CC[C@H](O)CC3)n2n1` .
≥ 7.00

Entry `COC[C@H](C)Nc1ncc2c(-c3cnn(C[C@@H]4CCO4)c3)cc([C@H]3CC[C@H](O)CC3)n2n1` has what pIC50?
≥ 7.00

Would you kindly share the measured pIC50 for `CC(C)CNc1ncc2c(OC3CCNCC3)ncc([C@H]3CC[C@H](O)CC3)c2n1` ?
≥ 7.00

I'd like to know its pIC50. The compound in question is `COC[C@H](C)Nc1ncc2c(-c3ccc(CN4CCOCC4)cc3)cc([C@H]3CC[C@H](NC(C)=O)CC3)n2n1`
≥ 7.00
